B1: CPEB3 Ribozyme (parent)
chain: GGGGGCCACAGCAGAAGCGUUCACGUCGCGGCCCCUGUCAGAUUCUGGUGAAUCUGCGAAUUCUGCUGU

- Variants of: B1
- assay-details: self-cleavage, relative activity (ratio to wild type); higher = more cleavage; co-transcriptional
parameter: self-cleavage

{"columns": ["variant-annotation", "parameter", "readout-number"],
 "data": [
  ["C12U A51G", "self-cleavage", 0.996],
  ["C18U C35A", "self-cleavage", 0.24],
  ["U67A G68A", "self-cleavage", 1.07],
  ["C29U G30U", "self-cleavage", 0.169],
  ["U26A C66G", "self-cleavage", 0.635],
  ["C33A U49G", "self-cleavage", 0.981],
  ["G19U A52G", "self-cleavage", 0.589],
  ["G37U A42G", "self-cleavage", 0.234],
  ["C18U G31U", "self-cleavage", 0.295],
  ["G48U A52C", "self-cleavage", 0.987],
  ["G19A U62A", "self-cleavage", 0.204],
  ["C45A U69A", "self-cleavage", 1],
  ["G41U U44G", "self-cleavage", 0.336],
  ["G56C A60U", "self-cleavage", 0.795],
  ["C34A G48C", "self-cleavage", 0.857],
  ["G37A A40G", "self-cleavage", 0.334],
  ["C18G G25C", "self-cleavage", 0.092],
  ["A16U G28U", "self-cleavage", 0.131],
  ["A52G U64C", "self-cleavage", 0.912],
  ["C22G U36A", "self-cleavage", 0.152],
  ["G14U C57A", "self-cleavage", 0.216],
  ["G30A G56U", "self-cleavage", 0.693]
]}
